# assayTarget: T1, human histidine-rich glycoprotein (HRG), purified from human plasma (human, UniProt P04196 19-525)
# T1 construct: also called human purified HRG; human purified HRG protein
# T1 sequence: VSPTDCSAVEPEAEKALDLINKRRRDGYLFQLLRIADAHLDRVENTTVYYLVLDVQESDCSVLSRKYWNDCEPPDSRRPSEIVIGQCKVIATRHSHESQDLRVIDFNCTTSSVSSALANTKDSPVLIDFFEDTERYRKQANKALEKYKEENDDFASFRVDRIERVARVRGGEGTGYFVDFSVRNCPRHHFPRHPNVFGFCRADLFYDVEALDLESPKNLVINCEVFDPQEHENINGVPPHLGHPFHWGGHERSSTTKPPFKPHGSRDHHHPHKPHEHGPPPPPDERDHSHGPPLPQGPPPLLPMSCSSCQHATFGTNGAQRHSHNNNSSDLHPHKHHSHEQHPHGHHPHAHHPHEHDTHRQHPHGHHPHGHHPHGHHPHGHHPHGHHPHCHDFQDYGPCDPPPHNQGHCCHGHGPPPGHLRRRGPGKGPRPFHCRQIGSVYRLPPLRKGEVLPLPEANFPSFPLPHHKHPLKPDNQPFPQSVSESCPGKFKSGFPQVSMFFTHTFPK
# assayInfo: sandwich ELISA, HRG captured by solid phase 19-1C
readoutKind: absorbance at 450 nm

binder	readoutKind	valueReported
anti-HRG monoclonal antibody 69-1A (antibody, V domains shown, Mouse hybridoma monoclonal; also called clone No. 69-1A) VH: EVKLEESGGGLVQPGGSMKLSCAASGFTFSDAWMDWVRQSPEKGLEWVAEIRSKANNHGTYYAESVKGRFTISRDDSKSSVYLRMNSLSAEDTGIYYCTRPFAYWGQGTLVTVSA VL: DVVVTQTPLSLPVSLGDQASISCRSSQSLVHIDGNTYFHWYVQKPGQSPKLLIYKVSNRFSGVPDRFSGSGSGTDFTLKISRVEAEDLGVYFCSQSTHVPLTFGAGTKLELK	absorbance at 450 nm	< 1 OD

Attention now shifts to the item below.
[in] For anti-HRG monoclonal antibody 67-8A-5F (antibody, V domains shown, Mouse hybridoma monoclonal) VH: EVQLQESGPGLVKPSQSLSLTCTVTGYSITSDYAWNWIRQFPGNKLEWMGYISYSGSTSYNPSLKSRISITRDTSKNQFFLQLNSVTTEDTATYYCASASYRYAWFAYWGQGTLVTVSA VL: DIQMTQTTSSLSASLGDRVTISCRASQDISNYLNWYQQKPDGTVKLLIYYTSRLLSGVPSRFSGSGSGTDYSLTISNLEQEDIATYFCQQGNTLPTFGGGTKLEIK , what is its reported absorbance at 450 nm?
[out] < 1 OD
